test_summary: soluble on expression in E. coli; label from the status in PepcDB or PDB records

>  <sequence_chain>
GPGSMKKCWVFDCAAPGLYCEPRRLLKPFSTDSILDAAGRAFETVEDGLKATTWRTHHAFSARCGLTSVTRSDSTTCGKGVEESSVSRSPEDYREWHADFHLRSPSAEPHVLLSVAPHYLPSRGSGNADDGRKMEVVGSRGRWLKPWRPQTAEEQAAYDAAVLGTPLIWEEPLVLSLDCTADGVFLWSEDHGIYGEKVANRCFERHSSDAGDDSAEFKQEAFLRFRWSEQPPAQTSSVGSGRHEMKEEHVESPNVSKCGELRVFRGQRTKVEAEEPHVERISYEEADVDAGSGGFLWQSVLHRIISCGPVPKEVYFAPYVTLMESGDEVSLL

>  <soluble on expression in E. coli>
not soluble

$$$$
>  <sequence_chain>
MPVELKSFDEFVKVVERAVECRVKRGKDVVKIKARTKRYLYTLKVPPEKEAEVLEQVKAKCKNLVELLEHHHHHHLEHHHHHHLEHHHHHHLEHHHHHHLEHHHHHHLEHHHHHHLEHHHHHH

>  <soluble on expression in E. coli>
not soluble

$$$$
>  <sequence_chain>
MFLPKFNPIRSFSPILRAKTLLRYQNRMYLSTEIRKAIEDAIESAPVVLFMKGTPEFPKCGFSRATIGLLGNQGVDPAKFAAYNVLEDPELREGIKEFSEWPTIPQLYVNKEFIGGCDVITSMARSGELADLLEEAQALVPEEEEETKDR

>  <soluble on expression in E. coli>
soluble

$$$$
>  <sequence_chain>
TQQPQQDEMPSPTFLTQVKESLSSYWESAKTAAQNLYEKTYLPAVDEKLRDLYSKSTAAMSTYTGIFTDQVLSVLKGEE

>  <soluble on expression in E. coli>
soluble

$$$$
>  <sequence_chain>
MAENVGSDSSEFESISSSQKSYLKNCPFAGHEALPTKSTDSDNTEVLGNQISPAVVKTPILSFSSPTSLDSINDDVFRTPPENASLSSAAESEPRVGVSEIKLQGGSNLTTPFSMAETTLVSSSPSLPAENVRVSESNLKSSSSTAKTTPVSASPSVNARVSESNLNSSSSTTPVSVSPSEKVRVFETTPVSASPSEKVRVFETKCHSDSGDSVPLSSSPPSVAADDVRVPAKHLDSDSSPPTAIGRTMVLVKQRISASDNSASSSASEGTKVSKTENSGEVLPFKEIIEALLRNSGEKLNERDDKVSYVEILKQCGLKFPK

>  <soluble on expression in E. coli>
soluble

$$$$
>  <sequence_chain>
MSLATMQDVATLAGVAPMTVSNCYRVPDKVHPQTLARVLEAAAKLGYTRNRIAGNLASGRSQVVGVLVPSLENSNFIGMIQGLEDRLHQLDHQLMLAVTPTADRELDSIRTFIERRIDGVVLTDVQHSRDTVDLLRNARLPTVETWSLKGPFIDMGVGFSLYDAAFDMTNLMIEAGYRRIGFAGFTPASTERFLERQRGFEDALRRANLRHDVHAYTEQSEGFAGGRITLNALLREEPELDGVFCGTDILAAGMIFECMRRGWRVPGRIGIAGYGNYQIASEITPKLTTVATPGYEMGVAAAEMLVGRLVGAAPAPVIRDVGYRLISGASEGHHHHHH

>  <soluble on expression in E. coli>
not soluble

$$$$
>  <sequence_chain>
MKIVYWSGTGNTEKMAELIAKGIIESGKDVNTINVSDVNIDELLNEDILILGCSAMADEVLEESEFEPFIEEISTKISGKKVALFGSYGWGDGKWMRDFEERMNGYGCVVVETPLIVQNEPDEAEQDCIEFGKKIANI

>  <soluble on expression in E. coli>
soluble

$$$$

---

test_summary: soluble on expression in E. coli; label from the status in PepcDB or PDB records

>  <sequence_chain>
CTRAVYIGPDHMVVTGRTMDWKEDIMSNIYVFPRGIQRAGYNKENAVKWTSKYGSVIATGYDIGTCDGMNEKGLVASLLFLPESVFDRPGDTRPVMGISIWTQYVLDNFATVHEAVEELKKESFRIDAPHMPNGSASTLHLAITDETGNTAVLEYLDGNLSIHEGKEFQVMTNSPRYDYQLAINDYWKEVGGLQMLPGTNRSSDRFVRASFYIHAIPQTPDAKIAVPSVLSVMRNVSVPFGITTPDKPHISSTRWRSVSDQKNKIYYFESVMTPNLFWLDLKKIDFSPKAGIKKLPLTNGKIY

>  <soluble on expression in E. coli>
not soluble

$$$$
>  <sequence_chain>
MSLNNQDISIGKLSRLKIWITDNHLSDDQWSNTKKFIIIKITTEDGIEGWGEAFSINFREKGIAIIIKELFREISNIPNLSIKSFYNKISLLSDGHRGLDFSSATSAIEIALWDISGKLKNLPLNSLLTKSPKPNVPIYATCWSDLKKDTNDYLRQIEKFYGKKYGGIKIYPMLDSLSISIQFVEKVREIVGDELPLMLDLAVPEDLDQTKSFLKEVSSFNPYWIEEPVDGENISLLTEIKNTFNMKVVTGEKQSGLVHFRELISRNAADIFNPDISGMGGLIDIIEISNEASNNGIFISPHCWNSMSVSASAMLHVCSSIPNSEKAEIFPDYINFSKKFCELPFDIIDNKAHINKSAGLGIVIHEDILSELSIYSLDEKSNDEGHHHHHH

>  <soluble on expression in E. coli>
soluble

$$$$
>  <sequence_chain>
MSLTPPLAPKTVAALHRLGIRTLEELRQNGSVKAFLLLKASGLTLTKSTLWQLESLLDGTPPQEMSQAHKARLLAELKNHPPVAAFPPQEEMEHFMCEALRQAEQSSADGEIPVGAVIVSDGKIIASAHNTCIADCNVSRHAEINALAQAGREIQNYRLDGCDIYITLEPCAMCASALIQARIRRVIYGAAEPKTGAAGSIVNLFADKRLNTHTAIRGGILQEECRAVLSRFFQNKREGHHHHHH

>  <soluble on expression in E. coli>
soluble

$$$$
>  <sequence_chain>
MLLLIDNYDSFTYNLYQYFCELGTEVMVKRNDELQLTDIEQLAPSHVVISPGPCTPNEAGISLAVIRHFADKLPILGVCLGHQALGQAFGARVVRARQVMHGKTSAICHSGQGVFRGLNQPLTVTRYHSLVIATDSLPGRFELTAWTERGGEMDEIMGIRHRTLPLEGVQFHPESILSEQGHQLLDNFLKN

>  <soluble on expression in E. coli>
not soluble

$$$$
>  <sequence_chain>
MEDESSAKYPYRESMPRAERVSMKALQDEWRHLFITRAEGENNIHNPKIPEDTNDFDDDMPIECNESEEESITGDREVFSVHHNEEDEDQEDSSQICEESEPQELPKLCRRTDKHFKELPSGLINIIKDLSLDISGLYLPQTLLTGRIDLNDEFVASIEVEDAEKSKEILRRRRERPLALRQFSHALSRAMANLRTYHYDVTTEKIERCPMRNSCKGHLKWEQMRKYRAQCKKNFKDPSLATVEDMMSK

>  <soluble on expression in E. coli>
not soluble

$$$$
>  <sequence_chain>
MEIGVPKEIKNQEFRVGLSPSSVRTLVEAGHTVFIETQAGIGAGFADQDYVQAGAQVVPSAKDAWSREMVVKVKEPLPAEYDLMQKDQLLFTYLHLAAARELTEQLMRVGLTAIAYETVELPNRSLPLLTPMSIIAGRLSVQFGARFLERQQGGRGVLLGGVPGVKPGKVVILGGGVVGTEAAKMAVGLGAQVQIFDINVERLSYLETLFGSRVELLYSNSAEIETAVAEADLLIGAVLVPGRRAPILVPASLVEQMRTGSVIVDVAVDQGGCVETLHPTSHTQPTYEVFGVVHYGVPNMPGAVPWTATQALNNSTLPYVVKLANQGLKALETDDALAKGLNVQAHRLVHPAVQQVFPDLA

>  <soluble on expression in E. coli>
soluble

$$$$
>  <sequence_chain>
MTSTKAYVLALAGCTNSGKSTLAKEFQRFFGAGETTIINQDEFYKTENEVEKIYHPDAEHLTDEGYYWSFDEKEAINIDQFRQRILNESKVYKNVIIDGNMITEMDEIVDLCDRIVVMTLDFKTCKRRREARTDYVPADTPGYFVNVAFPAYVRHLERARQRSRTDSRLTFIDVSESKFDDKNKSIVNFRQQILDDHIKLTDEVIDVKVVDQLVSHPSCGAISTFNGVTRDNHGGRDVSNLSYDCHDLMAYKKLRGICAEIRAEYPDVKKIAIFHRLGKVDIGESSVIISTSSPHRKTAIQATEKCIDLLKEHAPIFKYEEYSNGEVDGVWKSNIEDSKQ

>  <soluble on expression in E. coli>
not soluble

$$$$
>  <sequence_chain>
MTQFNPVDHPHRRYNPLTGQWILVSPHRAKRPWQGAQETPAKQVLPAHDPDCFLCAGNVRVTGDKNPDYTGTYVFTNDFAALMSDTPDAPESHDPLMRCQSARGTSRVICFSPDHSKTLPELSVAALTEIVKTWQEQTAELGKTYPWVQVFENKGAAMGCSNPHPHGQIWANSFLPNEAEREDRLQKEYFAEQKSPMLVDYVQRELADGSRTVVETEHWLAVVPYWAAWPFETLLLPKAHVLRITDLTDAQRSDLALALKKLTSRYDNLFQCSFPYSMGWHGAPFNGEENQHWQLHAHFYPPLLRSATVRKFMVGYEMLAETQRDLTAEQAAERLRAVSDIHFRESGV

>  <soluble on expression in E. coli>
soluble

$$$$
>  <sequence_chain>
MNDKTTRGRASKVDLLPPNIKSTLTMMLRDKQYSQAEILEEINNIIADSGLDESMQLSKTGLNRFASKMERFGKKIREAREVAEVWTKQLVEAPQSDIGKLLMEAVKTMAFDLTLNADEAVANDPKFLNQLALIANRIEQAQSISEERERKVRKEVAQQAADTAEKVISQAGLSADTVAQIKQQILGIA

>  <soluble on expression in E. coli>
not soluble

$$$$
>  <sequence_chain>
MAHHHHHHMELPFQWDDGNFISPFLTSGDDTLRVLAAWLNDSPLLRFQHGGALRLTDLGCGDGSALLSLSAGLFTLWGASGCRDVSPLQLTAVGLDLDEELILAARRRAEAIIVPPPHRLHCVFETVDVRQLDAAQYFPLSESSRHVLFVYLLPEGLEAIREKLLEIISRVALLVSNRWEVPFLARWKRVKLQNLHLYQYVGDGAN

>  <soluble on expression in E. coli>
not soluble

$$$$
